Tested on: UM-SCC-23
Test: 6-day MTT cell growth, UM-SCC-23
Format: cell-based, human
Settings: read-out: IC50, inhibition of cell growth
This listing pairs compounds with measured IC50.
Write the value in µM as a bare number.

For the compound N.N.[Cl][Pt][Cl] [Cisplatin, cisplatin, reference compound] , the measured IC50 on UM-SCC-23 was 25

Known value: UM-SCC-23 IC50 of the compound Cc1cc2c(C(C)C)c(O)c(O)c(C=O)c2c(O)c1-c1c(C)cc2c(C(C)C)c(O)c(O)c(C=O)c2c1O [(−)-gossypol] equals 1.5

###

Test system: MCF-7 breast cancer cell line
Assay: Growth inhibition with TAXOL in fixed ratio, MCF-7
Assay type: cell-based, human
Conditions: combinations in a fixed ratio to TAXOL
Quick list: IC50 per entry.
Enter your answer as a number in µM; do not include the unit.

GET /values?item= Cc1cc2c(C(C)C)c(O)c(O)c(C=O)c2c(O)c1-c1c(C)cc2c(C(C)C)c(O)c(O)c(C=O)c2c1O [(−)-gossypol] &system= MCF-7 breast cancer cell line returns IC50: 8.71

IC50 for MCF-7 breast cancer cell line with input Cc1cc2c(C(C)C)c(O)c(O)c(C=O)c2c(O)c1-c1c(C)cc2c(C(C)C)c(O)c(O)c(C=O)c2c1O [(+)-gossypol] equals 22.9
